Assay: Toxicity liver stage against HepG2, at 10uM
Type: cell-based
Design: test concentration 10 uM, cell line HepG2-A16-CD81EGFP
Details: human, HepG2-A16-CD81EGFP cells; read-out: INHIBITION
OBSERVABLE: cytotoxicity at 10 µM (%)
Numbers only; they are read as %.

Recorded results for 2 compounds are shown here.
- COMPOUND: "CNC(=O)[C@@H]1[C@@H](c2ccccc2)CN2CCN(Cc3cc(C)no3)C[C@H]12"
  cytotoxicity at 10 µM (%): 5.94
- COMPOUND: "CCN(C)c1ccc(CNC(=O)CCn2cc(C)cn2)cc1F"
  cytotoxicity at 10 µM (%): -9.51

Qu. So what's the measured cytotoxicity at 10 µM for this one? `Cc1cccc(C(=O)N2CCn3cc(CNC(=O)CC4CC4)nc3C2)n1`
Ans. -78.4

Qu. Give the measured cytotoxicity at 10 µM of `CCS(=O)(=O)N1CCC2(CN(Cc3ccc(C)o3)C2)C1` .
Ans. -109

Qu. Could you share which cytotoxicity at 10 µM value was measured for `CN(C)c1cc(C(=O)NCc2cccnc2-n2cncn2)ccn1` ?
Ans. 8.15

Qu. Looking for the measured cytotoxicity at 10 µM of `Cc1nnc(NC(=O)NCc2ccc(OC3CCCC3)nc2)s1` , can you help?
Ans. 0.141

Qu. Item O=C(N1CCCC1)N1Cc2nccn2CC(COc2cccnc2)C1 (centres undefined) has what recorded cytotoxicity at 10 µM?
Ans. 0.997

Qu. Suppose we examine the compound Cc1cccc(C2CCCN(C(=O)c3ccncc3)C2)n1 (centres undefined) ; what cytotoxicity at 10 µM value has been reported?
Ans. 2.97

Qu. What does the data say about its cytotoxicity at 10 µM? Entry: `CC(=O)N1CCCc2sc(C(=O)NC3CC3)nc21`
Ans. -132

Qu. Dear colleague, I am looking for the recorded cytotoxicity at 10 µM of the following compound: `CCN(CC)S(=O)(=O)c1ccc2c(c1)N(Cc1ccncc1)C(=O)CS2`
Ans. -5.62

Qu. What value of cytotoxicity at 10 µM has been reported for the following compound? CC1COCCN1c1ncnc2sccc12 (centres undefined)
Ans. 14.1

Qu. Reported cytotoxicity at 10 µM for `CNc1nc(C(=O)N2CCn3nc(C(=O)OC)cc3C2)cs1` : what is it?
Ans. -8.61

---

Experiment: Toxicity liver stage against HepG2, at 10uM
Format: cell-based
Parameters: test concentration 10 uM, cell line HepG2-A16-CD81EGFP
Details: human, HepG2-A16-CD81EGFP cells; read-out: INHIBITION
OBSERVABLE: cytotoxicity at 10 µM (%)
Just the number in %, nothing appended.

Here are 6 molecules together with their reported answers.
- MOLECULE: "CC(C)CC(=O)N1Cc2ccccc2CC1C(=O)Nc1nccs1 (stereo unspecified)"
  VALUE REPORTED: -135
- MOLECULE: "COc1ccc(NC(=O)NC(C)c2nc[nH]n2)cc1Cl (stereo unspecified)"
  VALUE REPORTED: 0.0264
- MOLECULE: "CN(Cc1ccco1)C[C@@H]1OC[C@H]2CN(Cc3nccs3)CC[C@H]21"
  VALUE REPORTED: -5.46
- MOLECULE: "Cn1ccnc1CN1CCCN(C(=O)COC2CCCCC2)CC1"
  VALUE REPORTED: -23.9
- MOLECULE: "CC(C)(C)c1ncc(C(=O)NCCNS(C)(=O)=O)s1"
  VALUE REPORTED: -6.14
- MOLECULE: "CCc1cc(CN2CCC(CCC(=O)Nc3ccccc3Cl)CC2)on1"
  VALUE REPORTED: 5.27

Qu. Which cytotoxicity at 10 µM reading was recorded for the molecule `FC(F)(F)c1ccnc(N2CCCN(Cc3ccccn3)CC2)n1` ?
Ans. -3.5

Qu. cytotoxicity at 10 µM lookup needed for `CCn1c(N)nc2cc(C(=O)N3CCN(CC(F)(F)F)CC3)cnc21` , thanks.
Ans. -2.03

Qu. // lookup cytotoxicity at 10 µM for O=C(NCC1CC2(CO1)CN(Cc1cccs1)C2)C1CCC1 (stereo unspecified)
Ans. -94.1

Qu. Value lookup for cytotoxicity at 10 µM; key = `O=C(COc1ccccc1N1CCCC1)N1CCN[C@H]2CS(=O)(=O)C[C@H]21`
Ans. -0.687

Qu. Consider the molecule shown here: `Cc1cnc2[nH]c(C(F)(F)F)c(CN3CCSCC3)c2c1` What is its recorded cytotoxicity at 10 µM?
Ans. 13.3

---

Experiment: Toxicity liver stage against HepG2, at 10uM
Assay type: cell-based
Set-up: test concentration 10 uM, cell line HepG2-A16-CD81EGFP
Conditions: human, HepG2-A16-CD81EGFP cells; read-out: INHIBITION
OBSERVABLE: cytotoxicity at 10 µM (%)
Numbers only here, please. The scale is %.

- MOLECULE: "CCN(CC)c1nc2ccsc2c(=O)n1CCC(=O)NCc1ccco1"
  OUTPUT UNIT: "%"
  VALUE REPORTED: 9.87
- MOLECULE: "Cc1cnn(CCNCC(O)c2ccc3c(c2)OCCO3)c1 (stereo unspecified)"
  OUTPUT UNIT: "%"
  VALUE REPORTED: 3.31
- MOLECULE: "CN(C1CCN(c2ccccn2)CC1)S(=O)(=O)N1CCOCC1"
  OUTPUT UNIT: "%"
  VALUE REPORTED: -5.23
- MOLECULE: "CS(=O)(=O)c1ccc(OCCNCc2ccc(F)cc2)cc1"
  OUTPUT UNIT: "%"
  VALUE REPORTED: -8.86
- MOLECULE: "CC(=O)N1CCC2(CC1)C(=O)N(C)c1c(F)cccc12"
  OUTPUT UNIT: "%"
  VALUE REPORTED: -11.2

Here's the next entry for you.
Qu. Return reported cytotoxicity at 10 µM; argument: `CCN(CC)[C@@H]1CN(C(=O)c2ccc(C#N)cc2)[C@@H]2CCCO[C@H]12`
Ans. -151

---

Assay: Toxicity liver stage against HepG2, at 10uM
Type: cell-based
Parameters: test concentration 10 uM, cell line HepG2-A16-CD81EGFP
Conditions: human, HepG2-A16-CD81EGFP cells; read-out: INHIBITION
OBSERVABLE: cytotoxicity at 10 µM (%)
Report only the number, with the unit % understood.

- COMPOUND: "CCCC(=O)N1CCC(c2nc(O)c3c(n2)CCN(C2CCCC2)C3)C1 (stereo unspecified)"
  OUTPUT UNIT: "%"
  cytotoxicity at 10 µM: 9.34
- COMPOUND: "O=C(CC1CC1)N1CCCn2c(nnc2Cn2cccc2)C1"
  OUTPUT UNIT: "%"
  cytotoxicity at 10 µM: 10.7
- COMPOUND: "CCc1nc(C)c(C(=O)NCCNC(=O)c2cccs2)s1"
  OUTPUT UNIT: "%"
  cytotoxicity at 10 µM: -1.45
- COMPOUND: "CCCNC(=O)C(C)n1nc(-c2ccc(C)o2)cc(N)c1=O (stereo unspecified)"
  OUTPUT UNIT: "%"
  cytotoxicity at 10 µM: -1.15

Qu. Suppose we examine the compound `Cc1cccc(N(CC(=O)N2CCCCC2)Cc2ccno2)c1` ; what cytotoxicity at 10 µM value has been reported?
Ans. 3.1

Qu. Item `Cc1csc(NC(=O)[C@@H]2C[C@H]3[C@H](CCN3c3ncccn3)O2)n1` has what recorded cytotoxicity at 10 µM?
Ans. -13.8

Qu. Given the compound `Cc1ccc(C(=O)N2CCOc3nc(C)ccc32)c(F)c1` , what is its reported cytotoxicity at 10 µM?
Ans. -2.71

Qu. Need cytotoxicity at 10 µM, item `CNC(=O)c1cccc(CCNc2ccccn2)c1`
Ans. 1.68

Qu. Could you tell me which cytotoxicity at 10 µM is on file for `Cc1cccc(C(=O)NCc2ccnc(N(C)C)c2)n1` ?
Ans. 3.22

Qu. Quick one: cytotoxicity at 10 µM of `O=C(CCn1cc(Cl)cn1)Nc1ncccn1` ?
Ans. -5.32

Qu. Please give the measured cytotoxicity at 10 µM for this compound: CC[C@@H](C)[C@H](NC(=O)NC1CCS(=O)(=O)C1)C(=O)NCc1ccncc1 (stereo partly specified)
Ans. -2.56

---

Assay: Toxicity liver stage against HepG2, at 10uM
Format: cell-based
Parameters: test concentration 10 uM, cell line HepG2-A16-CD81EGFP
Details: human, HepG2-A16-CD81EGFP cells; read-out: INHIBITION
OBSERVABLE: cytotoxicity at 10 µM (%)
Response body: numeric value in %, unit text excluded.

Qu. cytotoxicity at 10 µM lookup needed for CCC1c2cccn2CCN1C(=O)c1ccno1 (stereo not given) , thanks.
Ans. -8.58

Qu. # query: cytotoxicity at 10 µM of entry COc1ccc(C(C(=O)O)N(C)CCN2CCCC2)c(C)c1 (stereo not given)
Ans. 3.41
